# TARGET_OR_TEST_SYSTEM: α-glucosidase from bakers yeast
# EXPERIMENT_NOTES: α-Glucosidase inhibition assay, p-nitrophenyl-α-D-glucopyranoside substrate, 96-well format
# Assay type: biochemical
# CONDITION_SET: concentration necessary for 50% enzyme inhibition
MEASUREMENT_NAME: IC50

// worked examples, IC50 included
1) CCN(C(=O)[C@@H](N)Cc1ccccc1)[C@@H](Cc1ccc2ccccc2c1)C(=O)NCc1ccc2ccccc2c1 [S-(napth-2-ylmethyl)]
> 1000 µM
2) CC(O)C(C(=O)NCc1ccccc1)N(Cc1ccc2ccccc2c1)C(=O)C(N)Cc1cn(Cc2ccc3ccccc3c2)c2ccccc12 (stereo not drawn) [R-(1-hydroxyethyl)]
> 1000 µM
3) N[C@@H](Cc1cn(Cc2ccc3ccccc3c2)c2ccccc12)C(=O)N(Cc1ccc2ccccc2c1)[C@@H](Cc1cn(Cc2ccccc2)c2ccccc12)C(=O)NCc1ccccc1 [S-(N'-benzylindol-3-ylmethyl)]
632 µM
4) N[C@@H](Cc1cn(Cc2ccc3ccccc3c2)c2ccccc12)C(=O)N(Cc1ccc2ccccc2c1)[C@H](Cc1ccc2ccccc2c1)C(=O)NCc1ccccc1 [R-(napth-2-ylmethyl)]
> 1000 µM
5) CCN(C(=O)[C@@H](N)Cc1ccccc1)[C@H](C(=O)NCc1ccc2ccccc2c1)c1ccccc1 [S-(phenyl)]
184 µM

Consider the record given below.
Query string: Which IC50 is reported for this compound? N[C@@H](Cc1cn(Cc2ccc3ccccc3c2)c2ccccc12)C(=O)N(Cc1ccc2ccccc2c1)[C@@H](CCC(=O)O)C(=O)NCc1ccccc1 [S-(2-carboxyethyl)]
Result string: > 1000 µM

* * *

# TARGET_OR_TEST_SYSTEM: α-glucosidase from bakers yeast
# EXPERIMENT_NOTES: α-Glucosidase inhibition assay, p-nitrophenyl-α-D-glucopyranoside substrate, 96-well format
# Assay type: biochemical
# CONDITION_SET: concentration necessary for 50% enzyme inhibition
MEASUREMENT_NAME: IC50 (µM)
Note: unit µM is implicit; provide only the numeric part.

1) CC(O)C(C(=O)NCc1ccccc1)N(Cc1ccc2ccccc2c1)C(=O)C(N)Cc1cn(Cc2ccc3ccccc3c2)c2ccccc12 (stereo not drawn) [R'-(1-hydroxyethyl)]
678

Query string: Recorded IC50 of CCN(C(=O)[C@@H](N)Cc1ccccc1)[C@H](Cc1ccc(O)cc1)C(=O)NCc1ccc2ccccc2c1 [R-(4-hydroxybenzyl)] , please.
Result string: 540

* * *

# TARGET_OR_TEST_SYSTEM: α-glucosidase from bakers yeast
# EXPERIMENT_NOTES: α-Glucosidase inhibition assay, p-nitrophenyl-α-D-glucopyranoside substrate, 96-well format
# Type: biochemical
# CONDITION_SET: concentration necessary for 50% enzyme inhibition
MEASUREMENT_NAME: IC50 (µM)
// note: answer is a bare numeric in µM

Please review the following examples before continuing.
1. N[C@@H](Cc1cn(Cc2ccc3ccccc3c2)c2ccccc12)C(=O)N(CCC(=O)NCc1ccccc1)Cc1ccc2ccccc2c1 [hydrogen atom, AA = 1]
770
2. NC(Cc1cn(Cc2ccc3ccccc3c2)c2ccccc12)C(=O)N(Cc1ccc2ccccc2c1)C(Cc1cn(Cc2ccccc2)c2ccccc12)C(=O)NCc1ccccc1 (stereo not drawn)
552

Now look at this one.
Query string: Any idea what IC50 was measured for NC(Cc1cn(Cc2ccc3ccccc3c2)c2ccccc12)C(=O)N(Cc1ccc2ccccc2c1)C(CO)C(=O)NCc1ccccc1 (stereo not drawn) [S-(1-hydroxymethyl)] ?
Result string: 176
